target: NAD-dependent protein deacetylase sirtuin-2 (Homo sapiens); assay: Inhibition of N-terminal His6 tagged human sirtuin 2 (25 to 389 residues) at 25 uM using Cbz-Lys(acetyl)-AMC as substrate after 4 hrs in presence of NAD+ by homogeneous fluorescence based analysis relative to control
Sequence (Q8IXJ6 whole entry, the tested form may be a part): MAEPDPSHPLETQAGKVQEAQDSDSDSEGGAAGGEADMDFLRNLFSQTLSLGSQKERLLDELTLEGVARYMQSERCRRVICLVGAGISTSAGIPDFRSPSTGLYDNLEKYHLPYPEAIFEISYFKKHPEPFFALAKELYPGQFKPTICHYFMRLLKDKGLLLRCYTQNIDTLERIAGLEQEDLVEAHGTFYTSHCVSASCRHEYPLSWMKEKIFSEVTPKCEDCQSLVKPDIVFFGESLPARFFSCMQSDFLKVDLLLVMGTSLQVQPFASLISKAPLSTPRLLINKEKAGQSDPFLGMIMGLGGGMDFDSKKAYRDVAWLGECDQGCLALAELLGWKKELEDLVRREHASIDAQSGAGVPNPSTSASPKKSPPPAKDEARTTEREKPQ
recordedEndpoint: inhibition at 25 µM (%)

CC(c1ccc(Oc2ccc(OCc3ccccc3)cc2)cc1)N(C)c1ncc2c(N)nc(N)nc2n1 (configuration not stated) ... 70.4
COc1cc(Oc2ccc(C(C)N(C)c3ncc4c(N)nc(N)nc4n3)cc2)cc(OC)c1OC (configuration not stated) ... 29.2
COc1cccc(Oc2ccc(C(C)N(C)c3ncc4c(N)nc(N)nc4n3)cc2)c1 (configuration not stated) ... 33.8
COc1cc(OC)cc(Oc2ccc(C(c3ccccc3)N(C)c3ncc4c(N)nc(N)nc4n3)cc2)c1 (configuration not stated) ... 29.6
CC(c1ccc(Oc2ccc(OC(F)(F)F)cc2)cc1)N(C)c1ncc2c(N)nc(N)nc2n1 (configuration not stated) ... 37.5

(I) COc1ccc(Oc2ccc(C(C)N(C)c3ncc4c(N)nc(N)nc4n3)cc2)cc1 (configuration not stated)
(II) COc1ccc(Oc2ccc(C(C)N(C)c3ncc4c(N)nc(N)nc4n3)cc2)cc1OC (configuration not stated)
(III) COc1cc(OC)cc(Oc2ccc(C(C)N(C)c3ncc4c(N)nc(N)nc4n3)cc2)c1 (configuration not stated)
(IV) COc1ccc(Oc2ccc(C(C(C)C)N(C)c3ncc4c(N)nc(N)nc4n3)cc2)cc1 (configuration not stated)
Rank order required: inhibition at 25 µM, descending. Give the labels in the order requested.
IV, II, I, III
(IV: 57.4%, II: 35.3%, I: 21.9%, III: 7.4%)

###

target: NAD-dependent protein deacetylase (Schistosoma mansoni); assay: Inhibition of recombinant Schistosoma mansoni sirtuin 2 (21 to 322 residues) expressed in Escherichia coli BL21(DE3) cells assessed as inhibition of substrate demyristoylation using (Z)-(Myr)-Lys-AMC as susbtrate after 1 hr in presence of NAD+ by homogeneous fluorescence based analysis
recordedEndpoint: pIC50
Reminder that pIC50 is minus the log10 of a molar concentration.

Summary for this compound, COc1ccc(Oc2ccc(C(C)N(C)c3ncc4c(N)nc(N)nc4n3)cc2)cc1 (stereo unspecified) : pIC50 is 4.77

###

Target: NAD-dependent protein deacetylase (Schistosoma mansoni, UniProt T1VXA1)
Sequence (T1VXA1 whole entry): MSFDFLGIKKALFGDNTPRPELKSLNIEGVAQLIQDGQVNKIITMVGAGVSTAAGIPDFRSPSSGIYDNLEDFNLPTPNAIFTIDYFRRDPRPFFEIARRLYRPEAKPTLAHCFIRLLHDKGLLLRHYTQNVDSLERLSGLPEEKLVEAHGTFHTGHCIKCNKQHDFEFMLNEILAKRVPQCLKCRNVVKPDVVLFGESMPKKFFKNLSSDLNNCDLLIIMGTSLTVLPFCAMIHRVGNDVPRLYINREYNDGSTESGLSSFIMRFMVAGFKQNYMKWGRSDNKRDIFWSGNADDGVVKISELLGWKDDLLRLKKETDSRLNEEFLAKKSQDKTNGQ
Assay: Inhibition of recombinant Schistosoma mansoni sirtuin 2 (21 to 322 residues) expressed in Escherichia coli BL21(DE3) cells using ZMAL as substrate after 1 hr in presence of NAD+ by homogeneous fluorescence based analysis
pIC50: −log10 of the molar value.
recordedEndpoint: pIC50

These recorded examples may help you get a feel for the data.
COc1cc(Oc2ccc(C(C)N(C)c3ncc4c(N)nc(N)nc4n3)cc2)cc(OC)c1OC (centres undefined) ... 4.51
COc1ccc(Oc2ccc(C(C)N(C)c3ncc4c(N)nc(N)nc4n3)cc2)cc1 (centres undefined) ... 4.63

(1) COc1ccc(Nc2ccc(C(C)N(C)c3ncc4c(N)nc(N)nc4n3)cc2)cc1 (centres undefined)
(2) COc1ccc(Sc2ccc(C(C)N(C)c3ncc4c(N)nc(N)nc4n3)cc2)cc1 (centres undefined)
Between 1 and 2 , whose measured pIC50 reads higher? State the label of the item chosen.
2
(2: 4.83, 1: 4.19)

Data origin: ChEMBL document CHEMBL4321809
